All figures here come from paper PMC3737555.

# system_name: CELF1 RRM123 (Xenopus, UniProt O57406 1-214+385-489, internal_change)
# Sequence (O57406 other isoform, or with tags, fused parts or gaps): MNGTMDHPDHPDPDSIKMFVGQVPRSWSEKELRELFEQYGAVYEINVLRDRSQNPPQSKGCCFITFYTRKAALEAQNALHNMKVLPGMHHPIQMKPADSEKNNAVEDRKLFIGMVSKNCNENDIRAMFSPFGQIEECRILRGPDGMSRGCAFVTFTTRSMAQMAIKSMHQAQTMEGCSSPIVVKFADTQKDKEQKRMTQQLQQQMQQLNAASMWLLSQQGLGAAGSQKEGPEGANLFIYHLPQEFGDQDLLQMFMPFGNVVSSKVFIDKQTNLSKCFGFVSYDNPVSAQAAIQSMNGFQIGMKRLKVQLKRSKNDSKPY
# experiment_description: ITC; n=0.79; ITC: 25 mM potassium phosphate, 100 mM NaCl, pH 7.0, 25 C, 12.5 uM protein, 125 uM RNA in syringe; NMR: same buffer, 298 K, ~200-250 uM protein
# measurement_conditions: protein: recombinant; tags: N-terminal His; single strand
pKd: −log10 of the molar value.

>  <binder>
UGUAUGUGUUGUUUUAUGU (ssRNA) [EDEN19]

>  <pKd>
6.48

$$$$
